Catalogue of Kd values
- test-system: T1, GFP-9S library array, motif 4 ND N98Y;D124M (synthetic construct, N98Y;D124M)
- T1 chain: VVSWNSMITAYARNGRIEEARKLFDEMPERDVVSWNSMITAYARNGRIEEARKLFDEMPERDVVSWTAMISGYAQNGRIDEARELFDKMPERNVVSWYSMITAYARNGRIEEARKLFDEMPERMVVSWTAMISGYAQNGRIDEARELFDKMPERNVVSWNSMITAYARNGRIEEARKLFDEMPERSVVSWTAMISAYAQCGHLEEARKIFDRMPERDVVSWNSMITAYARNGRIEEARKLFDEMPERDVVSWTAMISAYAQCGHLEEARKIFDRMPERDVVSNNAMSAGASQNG
- experiment-description: high-throughput RNA pulldown from lysate on Ni-NTA beads; HRP: 50 mM Tris pH 8, 150 mM NaCl, 1 mM beta-mercaptoethanol, 50 ug/ml BSA, 3 ug/ml yeast RNA, 0.5% heparin; ITC and FP: Tris pH 8, 200 mM KCl, 5% glycerol; MST: 50 mM Tris pH 8, 200 mM NaCl, 1 mM DTT, BSA, heparin, 0.05% Tween 20
- conditions: tags: N-terminal His-eGFP; label: 5' Cy5

binder: AUUAGACGUGA (ssRNA) [Cy5-rpoA-G]
Kd: 36.2 nM
//
binder: AUUACACGUGA (ssRNA) [Cy5-rpoA]
Kd: 40.8 nM
